Reported values of Excretion amount for individual entries
- TEST PROTOCOL: Fecal excretion study in rats after oral NS, SF or CNS (LC–MS/MS)
- Assay type: in vivo
- CONDITIONS USED: rat feces, oral NS 60 mg/kg, 96 h
Write it as a number; the unit µg goes unstated.

Check the records and state Excretion amount for CC(C)=CCC[C@](C)(O[C@@H]1O[C@H](CO[C@@H]2O[C@H](CO)[C@@H](O)[C@H](O)[C@H]2O)[C@@H](O)[C@H](O)[C@H]1O)[C@H]1CC[C@]2(C)[C@@H]1[C@H](O)C[C@@H]1[C@@]3(C)CC[C@H](O[C@@H]4O[C@H](CO)[C@@H](O)[C@H](O)[C@H]4O[C@@H]4O[C@H](CO)[C@@H](O)[C@H](O)[C@H]4O)C(C)(C)[C@@H]3CC[C@]12C [ginsenoside Rb1]
0.264

* * *

- TEST PROTOCOL: Urinary excretion study in rats after oral NS, SF or CNS (LC–MS/MS)
- Assay type: in vivo
- CONDITIONS USED: male, Sprague Dawley, rat, urine, oral, oral CNS 110 mg/kg, 96 h
// reported concentration at 96 h for each item listed
The reply should contain only the number, in ng/mL.

- MOLECULE: "CC(C)=CCC[C@](C)(O[C@@H]1O[C@H](CO)[C@@H](O)[C@H](O)[C@H]1O)[C@H]1CC[C@]2(C)[C@@H]1[C@H](O)C[C@@H]1[C@@]3(C)CC[C@H](O)C(C)(C)[C@@H]3[C@@H](O[C@@H]3O[C@H](CO)[C@@H](O)[C@H](O)[C@H]3O)C[C@]12C [ginsenoside Rg1]"
  MEASUREMENT: 46
- MOLECULE: "CC(C)=CCC[C@](C)(O[C@@H]1O[C@H](CO[C@@H]2O[C@H](CO)[C@@H](O)[C@H](O)[C@H]2O)[C@@H](O)[C@H](O)[C@H]1O)[C@H]1CC[C@]2(C)[C@@H]1[C@H](O)C[C@@H]1[C@@]3(C)CC[C@H](O[C@@H]4O[C@H](CO)[C@@H](O)[C@H](O)[C@H]4O[C@@H]4O[C@H](CO)[C@@H](O)[C@H](O)[C@H]4O)C(C)(C)[C@@H]3CC[C@]12C [ginsenoside Rb1]"
  MEASUREMENT: 19
- MOLECULE: "CC(C)=CCC[C@](C)(O[C@@H]1O[C@H](CO)[C@@H](O)[C@H](O)[C@H]1O)[C@H]1CC[C@]2(C)[C@@H]1[C@H](O)C[C@@H]1[C@@]3(C)CC[C@H](O[C@@H]4O[C@H](CO)[C@@H](O)[C@H](O)[C@H]4O[C@@H]4O[C@H](CO)[C@@H](O)[C@H](O)[C@H]4O)C(C)(C)[C@@H]3CC[C@]12C [ginsenoside Rd]"
  MEASUREMENT: 16

Could you now consider this next molecule?
In one line, give reported concentration at 96 h of the entry CC(C)=CCC[C@](C)(O[C@@H]1O[C@H](CO)[C@@H](O)[C@H](O)[C@H]1O)[C@H]1CC[C@]2(C)[C@@H]1[C@H](O)C[C@@H]1[C@@]3(C)CC[C@H](O)C(C)(C)[C@@H]3[C@@H](O[C@@H]3O[C@H](CO)[C@@H](O)[C@H](O)[C@H]3O[C@@H]3O[C@@H](C)[C@H](O)[C@@H](O)[C@H]3O)C[C@]12C [ginsenoside Re] .
3
